Value source: ChEMBL document CHEMBL1201862

Please respond with reported GI50 for every item in the list.
Tested on: A549
Experimental protocol: NCI tumour cell line growth inhibition, 48 h
Activity calls are given as the source filed them. Rule as the data show it: active = GI50 up to about 1.1 µM and inactive = higher.

{"Compound": "CCN(CC)C(=S)SS(=O)(=O)c1ccccc1C(=O)O", "Measurement label": "GI50", "Observed value": "10.8 µM (inactive)"}

Provide each entry's GI50 from the list below.
1. CCCCCCCCCCCCCCCCOP(=O)(O)OP(=O)(O)OCC1OC(n2cnc3c(N)ncnc32)C(O)C1O (configuration not stated)
2. N#Cc1nc(Cc2cccs2)oc1N
3. COC(=O)C(=O)C(C(=O)C(=O)Nc1ccc([N+](=O)[O-])cc1C#N)c1nc2ccc([N+](=O)[O-])cc2nc1O (configuration not stated)
4. CN(C)CCCNC(=O)c1cc(NC(=O)CCCn2c3ccccc3c3ccccc32)cn1C
5. Cc1ccc(NC(=O)CC(=O)N2N=C(N(C)c3ccccc3)CC2c2ccccc2)cc1 (configuration not stated)
6. CCOC(=O)C(NC(=O)CC)(Nc1cc(C)on1)C(F)(F)F (configuration not stated)
7. O=C1c2cccc3cc([N+](=O)[O-])cc(c23)C(=O)N1Nc1ccc([N+](=O)[O-])cc1[N+](=O)[O-]

**A:**
1. > 100 µM (inactive)
2. > 100 µM (inactive)
3. > 100 µM (inactive)
4. 20.7 µM (inactive)
5. > 100 µM (inactive)
6. > 100 µM (inactive)
7. 16.3 µM (inactive)

Report GI50 for each item below.
1. O=C(O)C(CS)Nc1c2ccccc2[n+]([O-])c2ccccc12 (configuration not stated)
2. CSc1ccc2c(cc1=O)[C@@H](NC(=O)c1ccc(N)cc1)CCc1cc(O)c(O)c(O)c1-2
3. CN(C)CC1CN/C(=N\C(=O)Nc2ccccc2)O1 (configuration not stated)
4. N#CC1=C(N)C(C#N)(C#N)C(c2ccc(F)cc2)C=C1C1CC1 (configuration not stated)
5. O=c1ncccn1[C@@H]1O[C@H](CO)[C@@H](O)[C@@H]1F
6. CC(=O)O[C@H]1CCC2[C@@H]3CC[C@]4(C)CC(=O)C=C[C@]4(C)C3CC[C@@]21C (some centres not stated)
7. CCCC(=O)c1c(NOC2OCC(OC(C)=O)C(OC(C)=O)C2OC(C)=O)nc(OC)n(C)c1=O (configuration not stated)
8. NC(=O)/N=C1\NC(Cc2ccccc2)C(=O)N1Cc1ccccc1 (configuration not stated)

**A:**
["> 100 µM (inactive)", "19.1 µM (inactive)", "> 100 µM (inactive)", "13.8 µM (inactive)", "> 100 µM (inactive)", "18.3 µM (inactive)", "> 100 µM (inactive)", "> 100 µM (inactive)"]

List reported GI50 for each of these compounds:
1. Nc1nc(-c2ccco2)cc(-c2ccc(CO)o2)n1
2. COc1ccccc1C(C1=C(O)COC1=O)c1cc2c(cc1OC(C)=O)OCO2 (configuration not stated)
3. O=C(CCc1ccc(O)cc1)NCCc1ccc(O)cc1
4. N/C(=N/c1ccc(O)cc1)S(=O)(=O)O
5. COc1ccc(-c2nnc3nc4ccccc4n3c2O)cc1

**A:**
1. > 100 µM (inactive)
2. > 100 µM (inactive)
3. > 100 µM (inactive)
4. > 100 µM (inactive)
5. > 100 µM (inactive)

**Q:** Entry `O=C(O)c1ccccc1NS(=O)(=O)c1ccc(Cl)cc1` has what GI50?
**A:** > 100 µM (inactive)
